Assay: physchem
Settings: buffer, pH 7.4
READOUT LABEL: logD

[a] CCOc1cc(CC(=O)N[C@@H](CC(C)C)c2ccccc2N2CCCCC2)ccc1C(=O)O [REPAGLINIDE]
[b] CCO[C@@H](Cc1ccc(OCCc2ccc(OS(C)(=O)=O)cc2)cc1)C(=O)O
Problem: Thinking about recorded logD values, which is higher, a or b ? // output: label of the selected item
Result: a
(a: 2.3, b: -0.1)

* * *

Test: Ratio of drug level in cynomolgus monkey blood to plasma administered through oral dosing by LC-MS/MS analysis
Type: ADME, cell-free, Macaca fascicularis
Conditions: blood and plasma
READOUT LABEL: blood plasma ratio

Problem: Reported blood plasma ratio for Cn1cc(C(=O)O)c2ccc(N3CCC(OCc4c(-c5c(Cl)cccc5Cl)noc4C4CC4)CC3)cc21 : what is it?
Result: 1.1

Problem: Find the recorded blood plasma ratio belonging to Cc1ccc(NC(=O)C2(c3ccc4c(c3)OC(F)(F)O4)CC2)nc1-c1cccc(C(=O)O)c1 and report it.
Result: 0.575

Problem: Param item = O=C(O)[C@@H]1CCC[C@H]1C(=O)c1ccc(-c2ccc(Nc3nc4ccc(F)cc4s3)c(F)c2)cc1 ; retrieve measured blood plasma ratio.
Result: 0.617

Problem: Item CCC[C@H](c1ccc(C(=O)NCCC(=O)O)cc1)[C@H](c1ccc(Cl)cc1)c1c[nH]c2c(F)cc(C)cc12 has what recorded blood plasma ratio?
Result: 0.95

Problem: GET /values?readout=blood plasma ratio&item= COc1ccccc1[C@H](Cn1c(=O)n(C(C)(C)C(=O)O)c(=O)c2c(C)c(-c3ncco3)sc21)OC1CCOCC1
Result: 0.623

[a] Cc1ccc(S(=O)(=O)NCCc2ccc(Oc3ccc(F)c(F)c3)cc2)cc1C(=O)O
[b] Cc1cc(O[C@H](CCC(F)(F)F)c2ccc(C(=O)NCCC(=O)O)cc2)cc(C)c1-c1ccc(C(C)(C)C)cc1
Problem: Kindly identify the item with the lower blood plasma ratio figure among these two: a and b I would appreciate it if you answered with the label of your choice.
Result: a

* * *

Experiment: physchem
READOUT LABEL: pKa at 0.3 h

Problem: Which pKa at 0.3 h value belongs to CC(C)n1c(/C=C/C(O)CC(O)CC(=O)O)c(-c2ccc(F)cc2)c2ccccc21 (configuration not stated) ?
Result: 4.4

Problem: What value of measured pKa at 0.3 h is listed for COCc1c(C(C)C)nc(C(C)C)c(/C=C/[C@@H](O)C[C@@H](O)CC(=O)O)c1-c1ccc(F)cc1 ?
Result: 4.7

Problem: # get_value(readout='pKa at 0.3 h', item= O=C(O)c1cccc(Cc2cc(Cl)ccc2OCc2ccc(Cl)cc2F)n1 )
Result: 5.3

Problem: // query pKa at 0.3 h value for entry CC(C)c1nc(N(C)S(C)(=O)=O)nc(-c2ccc(F)cc2)c1/C=C/[C@@H](O)C[C@@H](O)CC(=O)O
Result: 4.3

Problem: Would you kindly share the measured pKa at 0.3 h for O=C(O)[C@@H]1CCC[C@H]1C(=O)c1ccc(-c2ccc(Nc3nc4ccc(F)cc4s3)c(F)c2)cc1 ?
Result: 4.7

Problem: Look up pKa at 0.3 h for this compound: CC[C@H](C)C(=O)O[C@H]1C[C@H](O)C=C2C=C[C@H](C)[C@H](CC[C@@H](O)C[C@@H](O)CC(=O)O)[C@H]21
Result: 4.3

Problem: Name the recorded pKa at 0.3 h for CCCCCN(CCCOC)C(=O)[C@@H](CCC(=O)O)NC(=O)c1ccc(Cl)c(Cl)c1 [DEXLOXIGLUMIDE] .
Result: 4.2

* * *

Experiment: Ratio of drug level in human blood to plasma administered through oral dosing by LC-MS/MS analysis
Format: ADME, cell-free
Settings: blood and plasma
READOUT LABEL: blood plasma ratio

Problem: // lookup blood plasma ratio for Cc1cc(O[C@H](CCC(F)(F)F)c2ccc(C(=O)NCCC(=O)O)cc2)cc(C)c1-c1ccc(C(C)(C)C)cc1
Result: 0.605

Problem: Can you look up the measured blood plasma ratio of Cc1ccc(S(=O)(=O)NCCc2ccc(Oc3ccc(F)c(F)c3)cc2)cc1C(=O)O for me?
Result: 0.55

Problem: // lookup blood plasma ratio for Cc1ccc(NC(=O)C2(c3ccc4c(c3)OC(F)(F)O4)CC2)nc1-c1cccc(C(=O)O)c1
Result: 0.575

Problem: Reported blood plasma ratio for O=C(O)[C@@H]1CCC[C@H]1C(=O)c1ccc(-c2ccc(Nc3nc4ccc(F)cc4s3)c(F)c2)cc1 : what is it?
Result: 0.653

Problem: What value of measured blood plasma ratio is listed for CCC[C@H](c1ccc(C(=O)NCCC(=O)O)cc1)[C@H](c1ccc(Cl)cc1)c1c[nH]c2c(F)cc(C)cc12 ?
Result: 0.55

Problem: Report blood plasma ratio for COc1ccccc1[C@H](Cn1c(=O)n(C(C)(C)C(=O)O)c(=O)c2c(C)c(-c3ncco3)sc21)OC1CCOCC1 please.
Result: 0.655

Problem: # input compound: Cn1cc(C(=O)O)c2ccc(N3CCC(OCc4c(-c5c(Cl)cccc5Cl)noc4C4CC4)CC3)cc21 ; wanted: its blood plasma ratio
Result: 0.612

* * *

Test: clinical
Settings: human, blood and plasma, iv
Description: Ratio of drug level in human blood to plasma administered through iv dosing by LC-MS/MS analysis
READOUT LABEL: blood plasma ratio

Problem: Can you look up the measured blood plasma ratio of CCO[C@@H](Cc1ccc(OCCc2ccc(OS(C)(=O)=O)cc2)cc1)C(=O)O for me?
Result: 0.699

Problem: Please report the recorded blood plasma ratio for CC[C@H](C)C(=O)O[C@H]1C[C@H](O)C=C2C=C[C@H](C)[C@H](CC[C@@H](O)C[C@@H](O)CC(=O)O)[C@H]21 .
Result: 0.55

Problem: Fill blank: measured blood plasma ratio of the compound CCCCC1=NC2(CCCC2)C(=O)N1Cc1ccc(-c2ccccc2-c2nnn[nH]2)cc1 is ____.
Result: 0.603

Problem: What value of blood plasma ratio has been reported for the following compound? CN(C)C(=O)CCS[C@H](SCCC(=O)O)c1cccc(/C=C/c2ccc3ccc(Cl)cc3n2)c1
Result: 0.655

Problem: Query (compound): O=C(c1ccccc1)c1ccc2n1CCC2C(=O)O (configuration not stated) ; field requested: blood plasma ratio
Result: 0.792

Problem: Entry Cc1nn(-c2cnc(OCC(C)C)c(Cl)c2)c2ccc(C(=O)NS(C)(=O)=O)cc12 : reported blood plasma ratio = ?
Result: 0.56

Problem: What value of measured blood plasma ratio is listed for CCOc1cc(CC(=O)N[C@@H](CC(C)C)c2ccccc2N2CCCCC2)ccc1C(=O)O [REPAGLINIDE] ?
Result: 0.851

Problem: Reported blood plasma ratio for CCCc1nc2c(C)cc(-c3nc4ccccc4n3C)cc2n1Cc1ccc(-c2ccccc2C(=O)O)cc1 : what is it?
Result: 0.61

Problem: Entry under review: COc1ccccc1Oc1c(NS(=O)(=O)c2ccc(C(C)(C)C)cc2)nc(-c2ncccn2)nc1OCCO . Reported blood plasma ratio?
Result: 0.668

Problem: Request the reported blood plasma ratio associated with CC(C)(C)OC(=O)N[C@H]1CCCCC/C=C\[C@@H]2C[C@@]2(C(=O)NS(=O)(=O)C2CC2)NC(=O)[C@@H]2C[C@@H](OC(=O)N3Cc4cccc(F)c4C3)CN2C1=O
Result: 0.73

Problem: Any idea what blood plasma ratio was measured for CCCCc1nc(C)c(CC(=S)N(C)C)c(=O)n1Cc1ccc(-c2ccccc2-c2nnn[nH]2)cc1 ?
Result: 0.726

Problem: Form field: reported blood plasma ratio of CCCCCN(CCCOC)C(=O)[C@@H](CCC(=O)O)NC(=O)c1ccc(Cl)c(Cl)c1 [DEXLOXIGLUMIDE]
Result: 0.563

Problem: Query (compound): CC(C)(C)NC(=O)[C@H]1CC[C@H]2[C@@H]3CC=C4C=C(C(=O)O)CC[C@]4(C)[C@H]3CC[C@]12C [EPRISTERIDE] ; field requested: blood plasma ratio
Result: 0.55

Problem: What value of blood plasma ratio has been recorded for this entry: CC(C)c1nc(N(C)S(C)(=O)=O)nc(-c2ccc(F)cc2)c1/C=C/[C@@H](O)C[C@@H](O)CC(=O)O
Result: 0.569

Problem: # lookup: blood plasma ratio of O=C(O)c1cccc(Cc2cc(Cl)ccc2OCc2ccc(Cl)cc2F)n1
Result: 0.654

Problem: Look up blood plasma ratio for this compound: COc1ccc2c(c1)C(=O)N(CCc1ccc(S(=O)(=O)NC(=O)NC3CCCCC3)cc1)C(=O)C2(C)C
Result: 0.62

Problem: # get_value(readout='blood plasma ratio', item= O=C(O)C[C@H](O)C[C@H](O)/C=C/c1c(C2CC2)nc2ccccc2c1-c1ccc(F)cc1 )
Result: 0.65

* * *

Test: Hepatic clearance in human administered through oral dosing
Format: ADME
READOUT LABEL: CLH (mL/min/kg)

Problem: May I ask what CLH has been recorded for Cc1cc(O[C@H](CCC(F)(F)F)c2ccc(C(=O)NCCC(=O)O)cc2)cc(C)c1-c1ccc(C(C)(C)C)cc1 ?
Result: 0.078

Problem: Query (compound): Cn1cc(C(=O)O)c2ccc(N3CCC(OCc4c(-c5c(Cl)cccc5Cl)noc4C4CC4)CC3)cc21 ; field requested: CLH
Result: 8.8

Problem: # lookup: CLH of O=C(O)[C@@H]1CCC[C@H]1C(=O)c1ccc(-c2ccc(Nc3nc4ccc(F)cc4s3)c(F)c2)cc1
Result: 0.59

Problem: May I ask what CLH has been recorded for Cc1ccc(NC(=O)C2(c3ccc4c(c3)OC(F)(F)O4)CC2)nc1-c1cccc(C(=O)O)c1 ?
Result: 0.26

Problem: Field request: CLH | item: Cc1ccc(S(=O)(=O)NCCc2ccc(Oc3ccc(F)c(F)c3)cc2)cc1C(=O)O
Result: 0.72

[a] CCC[C@H](c1ccc(C(=O)NCCC(=O)O)cc1)[C@H](c1ccc(Cl)cc1)c1c[nH]c2c(F)cc(C)cc12
[b] COc1ccccc1[C@H](Cn1c(=O)n(C(C)(C)C(=O)O)c(=O)c2c(C)c(-c3ncco3)sc21)OC1CCOCC1
Problem: Sorting by CLH in descending order, would a or b appear first? # answer = label of selected item
Result: b
